These data points were gathered from patent US9994616B2.

Biological target: c-Met-Fc (Homo sapiens, UniProt P08581)
Sequence (P08581 with tags, fused parts or gaps limits assumed): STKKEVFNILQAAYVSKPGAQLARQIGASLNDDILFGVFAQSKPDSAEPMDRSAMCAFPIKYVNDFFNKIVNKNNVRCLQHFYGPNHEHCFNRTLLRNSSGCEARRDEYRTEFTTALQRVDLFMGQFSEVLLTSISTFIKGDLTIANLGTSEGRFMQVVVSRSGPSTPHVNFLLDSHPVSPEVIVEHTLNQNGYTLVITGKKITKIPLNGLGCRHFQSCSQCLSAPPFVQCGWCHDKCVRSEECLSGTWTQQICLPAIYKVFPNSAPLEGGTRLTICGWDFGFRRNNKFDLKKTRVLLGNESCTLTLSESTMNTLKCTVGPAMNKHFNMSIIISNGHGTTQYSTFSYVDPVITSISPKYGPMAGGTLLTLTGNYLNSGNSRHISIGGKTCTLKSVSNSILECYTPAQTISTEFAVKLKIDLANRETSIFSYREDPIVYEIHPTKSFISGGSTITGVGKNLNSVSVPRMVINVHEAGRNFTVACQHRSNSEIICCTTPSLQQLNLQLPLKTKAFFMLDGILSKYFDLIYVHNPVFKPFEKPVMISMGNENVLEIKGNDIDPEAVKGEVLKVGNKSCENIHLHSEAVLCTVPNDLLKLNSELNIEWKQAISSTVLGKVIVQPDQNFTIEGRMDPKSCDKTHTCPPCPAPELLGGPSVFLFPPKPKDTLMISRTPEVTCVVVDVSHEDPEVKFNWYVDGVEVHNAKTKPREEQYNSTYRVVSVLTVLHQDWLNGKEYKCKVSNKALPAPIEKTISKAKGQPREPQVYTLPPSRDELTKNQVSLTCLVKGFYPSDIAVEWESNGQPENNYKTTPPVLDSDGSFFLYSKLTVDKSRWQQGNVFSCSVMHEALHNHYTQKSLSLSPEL
Sequence (P08581 25-307 limits assumed): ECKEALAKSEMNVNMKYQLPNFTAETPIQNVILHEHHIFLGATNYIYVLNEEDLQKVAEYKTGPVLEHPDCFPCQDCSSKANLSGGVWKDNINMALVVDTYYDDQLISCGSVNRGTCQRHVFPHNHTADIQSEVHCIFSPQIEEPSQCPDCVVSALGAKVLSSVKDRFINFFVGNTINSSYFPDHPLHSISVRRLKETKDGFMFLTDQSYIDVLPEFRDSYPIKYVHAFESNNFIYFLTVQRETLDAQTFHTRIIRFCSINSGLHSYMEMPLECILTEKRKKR
Experiment: Binding ability by surface plasmon resonance (SPR, Biacore)
Settings: Table 11, monomer and dimeric peptides
Bridges are numbered along the chain shown (N, C = ends). Roman numbers before positions name the chains, in order. Where no end group is shown, it is not given here. [ ]: non-standard residue; d: D form.
Provide the reported ka of each item.

Examples with answers:
D4-3 BMH: dimeric peptide: two D4-3 macrocycles linked through C-terminal Cys by BMH linker ({CH2CO}-[dY]RQFNRRTHEVWNLDCGC; thioether N-16; not fully specified (residue 18); also: dimer: two copies joined by BMH, linker at 18 via BMH, other end not in the chain) | 2.0 10^6 M^−1s^−1
D4-3 Bis-MAL-PEG11: dimeric peptide: two D4-3 macrocycles linked through C-terminal Cys by Bis-MAL-PEG11 linker ({CH2CO}-[dY]RQFNRRTHEVWNLDCGC; thioether N-16; not fully specified (residue 18); also: dimer: two copies joined by Bis-MAL-PEG11, linker at 18 via Bis-MAL-PEG11, other end not in the chain) | 1.2 10^6 M^−1s^−1

# context switch: different substance, same ka
Please look up its ka: D5-4 Bis-MAL-PEG11: dimeric peptide: two D5-4 macrocycles linked through C-terminal Cys by Bis-MAL-PEG11 linker (peptide 1 {CH2CO}-[dY]WYYAWDQTYKAFPCG; peptide 2 {CH2CO}-[dY]WYYAWDQTYKAFPCG; thioether I:N-I:15, II:N-II:15; not fully specified (C-terminus); also: dimer: two chains joined by Bis-MAL-PEG11 through an added C-terminal Cys not in the letters)
5.3 10^6 M^−1s^−1

----------
Molecular target: c-Met-Fc (Homo sapiens)
Experiment: Binding ability by surface plasmon resonance (SPR, Biacore)
Details: Table 11, monomer and dimeric peptides
Bridges are numbered along the chain shown (N, C = ends). Roman numbers before positions name the chains, in order. Where no end group is shown, it is not given here. [ ]: non-standard residue; d: D form.
endpoint-name: ka

I'd like to know its ka. The substance in question is D5-4 Bis-MAL-PEG3: dimeric peptide: two D5-4 macrocycles linked through C-terminal Cys by Bis-MAL-PEG3 linker (peptide 1 {CH2CO}-[dY]WYYAWDQTYKAFPCG; peptide 2 {CH2CO}-[dY]WYYAWDQTYKAFPCG; thioether I:N-I:15, II:N-II:15; not fully specified (C-terminus); also: dimer: two chains joined by Bis-MAL-PEG3 through an added C-terminal Cys not in the letters)
0.12 10^6 M^−1s^−1
